Source: paper PMC2009384

# No. of mice examined at p.m. from 50-70th week with lung tumours per record follows
System: newborn Swiss mice
Experiment: Experiment II: carcinogenicity in newborn mice, chrysene, 7-methylbenz(a)anthracene and K region epoxides (s.c. injection, tumour incidence to 70-75 weeks)
Settings: females; 100 µg per treatment, 3 treatments

{"columns": ["Compound", "System Tested", "Recorded Result"],
 "data": [
  ["Cc1c2ccccc2cc2c1ccc1ccccc12 [7-Methylbenz(a)anthracene, reference compound]", "newborn Swiss mice", 7]
]}

From here, focus on the item given below.
Given the compound c1ccc2c(c1)-c1ccccc1C1OC21 (centres unmarked) [phenanthrene 9,10-oxide] , what is its reported No. of mice examined at p.m. from 50-70th week with lung tumours?
0
